Numbers sourced from the nanobody polyreactivity screen of Harvey et al. (2022).

assay: yeast display, Sf9 membrane polyspecificity reagent, FACS + sequencing; frameworks hold sequencing errors

# POLYMER_SEQUENCE, polyreactivity (PSR sort gate)
measured = [
    ("QVQLVESGGGLVQAGGSLRLSCAASGSTFNRYAMGWYRQAPGKARELVATNNSGTSTNYADSVKGRFTISRDNAKNTVYLQKNSLKPEDTAVYYCAKTFRRSVGGYGYEYWGQGTQVTVSS", "low polyreactivity"),
    ("QVQLVESGGGLVQAGGSLRLSCAASGSTFVPKDMGWNRQAPGKERELVAAISYSGGSTYYADSVKGRFTISRDNAKNTVYLQLNSLKPEDTAVDYCNAEGWYYLTEYGYWGQGTQVTVSS", "low polyreactivity"),
    ("QVQLVESGGGLVQAGGSLRLSCAASGRILRYNAMGWYRQAPGKERELVASISGNGGSTYYADSVKGRFTISRDNAKNTVYVQMNSLKPEDTAVYYCNKYYYSSRGQKEYDYWGQGTQVTVSS", "low polyreactivity"),
]

----------
test: yeast display, Sf9 membrane polyspecificity reagent, FACS + sequencing; frameworks hold sequencing errors

# POLYMER_SEQUENCE, polyreactivity (PSR sort gate)
rows = [
    ("QVQLVESGGGLVQAGGSLRLSCAASGRTFYIYAMGWYRQAPGKERELVARITTGGRTNYADSVKGRFTISRDNAKNTVYLQMNSLKPEDTAVYYCATQYRGRQRKYDYWGQGTQVTVSS", "high polyreactivity"),
    ("QVQLVESGGGLVQAGGSLRLSCAASGFTCKYYTMGWYRQAPGKERELVAAISKSGDITYYADSVKGRFTISRDNAKNTVYLQMNSMKPEDTAVYYCAVVPSSTYHAYDYWGQGTQVTVSS", "high polyreactivity"),
    ("QVQLVESVGGLVQAGGSLRLSSAASGRIFSYKVMGWYRQAPGKESELVAAITSNDGSTYYADSVKGRFTISRDNAKNTVYLQMNSLKPVDTADYYCNADYGPVSLNEPFRDDYWGQGTQVTVSS", "low polyreactivity"),
    ("QVQLVESGGGLVHAGGSIRLSCAASGRTFAYNDMGWYTQAPGTERELVAAISWSDGTTYYADSVKGRFTISRDNAKNPVYLQMHCLKPEDTAVYYCAAESYPSEVASYVSEYDYWGQGTQVTVSS", "low polyreactivity"),
]

----------
assay: yeast display, Sf9 membrane polyspecificity reagent, FACS + sequencing; frameworks hold sequencing errors

# POLYMER_SEQUENCE, polyreactivity (PSR sort gate)
data = [
    ("QVQLVESGGGLVQAGGSLRLSCAASGIIFYYNAMGWYRQAPGKERELVAAIDDRGDSTYYADSVKGRFTISRDNAKNTVYLEMNSLKPEDTAVYYCATDGHYLYSWYKYDYWGQGTQVTVSS", "low polyreactivity"),
    ("QVQLVESGGGLVQAGGSLRLSCAASGIIFRYNAMGWYRQAPGKERELVAAISTGGSTNYADSVKGRFTISRDNAKNTVYLQMNSLKPEDTAVYYCAADWHRAYGAYDYWGQGTQVTVSS", "low polyreactivity"),
    ("QVQLVESGGGLVQAGGSLRLICAASGSTFVEYAMGWYRQAPGKERELVATISYRGTRTYYADSVKGRFTISRDNAKNTVYLQMNSLKPEDTAVYYCAARSWFRTVEYDYWGKGTQVTVSS", "high polyreactivity"),
    ("QVQLVESGGGLVQAGGSLRLSCAASGRIFAYYTMGWYRQAPGKERELVAAITKRGGSTYYADSVKGRFTISRDNAKNTVYLQMNSLKPEDTAVYYCAADPHRYRYRSPHDYWGQGTQVTVSS", "high polyreactivity"),
    ("QVQLVESGGGLVQAGGSLRLSCAASGRIFLYNAMGWYRQAPGKERELVAAITSSGSSTYYADSVKGRFTISRDNAKNTVYLQMNSLKPEDTAVYYCNRYTRKTRRVDYWGQGTQVTVSS", "high polyreactivity"),
]

----------
assay: yeast display, Sf9 membrane polyspecificity reagent, FACS + sequencing; frameworks hold sequencing errors

# POLYMER_SEQUENCE, polyreactivity (PSR sort gate)
records = [
    ("QVQLVESGGGLVQAGGSLRLSCAASGRIFSGSVMGWYRQAPGKVRELVAGITYRDGSTYYADSVKGRFTISRDNAKNTVYFQMNSLKPEDTAVYYCNADDYNDIPYDYWGQGTQVTVSS", "low polyreactivity"),
    ("QVQLVESGGGLVQAGGSLRLSCAASGRTFVPNALGWYRQAPGKERELVAALSWSGDSTYYADSVKGRFTISRDNAKNTVYLQMNSLKPEDTAVYYCAADPFFGVSIGGLKYHFDYWGQGTQVTVSS", "low polyreactivity"),
]

----------
assay: yeast display, Sf9 membrane polyspecificity reagent, FACS + sequencing; frameworks hold sequencing errors

# POLYMER_SEQUENCE, polyreactivity (PSR sort gate)
rows = [
    ("QVQLVESGGGLVQAGGSLRLSCAASGSTFRYYAMGWYRQAPGKERELVAVISTSGNTYYADSVKGRFSISRDNAKITVYVQMNSLQPEETAVYYCAARGVGGQISQEYDYWGQGTQVTVSS", "low polyreactivity"),
    ("QVQLVESGGGLVQAGGSLRLSCAASGSTFYRNAMAWYRQAPGKERELVAAISSTGGSTYYADSVKGRFTISRDNAKNTVYLQMNSLKPEDTAVYYCAVDPGLTKGFGYWGQGTQVTVSS", "low polyreactivity"),
    ("QVQLVESGGGLVQAGGSIRLSCAASGSTFSHNAMGWYRQAPGKERELVAAIRWNGGSTYYADSVKGRFTISRDNAKNTVYLQMNSLKPEDTAVYYCAKENHYFTQGYGYWGQGTQVTVSS", "low polyreactivity"),
    ("QVQLVESGGGLVQAGGSLRLSCAASGFTFYSYAMGWYRQEPGKEREFVAAITSRGGSTYYADSVKGRFTISRDNAKNTVYLQMNSLKPEDNAVYYCAAYAGYSDQARYYYWGQGTQVTVSS", "high polyreactivity"),
    ("QVQLVESGGGLVQAGGSLRLSCAASGRIFYRYAMGWYRQAPGKERELVATITNGGSTNYADSVKGRFTISRDNAMITVYLQMNSLKPEDTAVYYCAASRSRYSVNCYNYWGQGTQVTLSS", "high polyreactivity"),
    ("QVQLVESGGGLVQAGGSLRLSCAASGSTFIFYAMGWYRQAPGKERELVAAISSGGITNYADSVKGRFTISRDNAKNTVYLQMNSLKPEDTAVYYCAKRKGPRWSRQYRYPYYSWGQGTQVTVSS", "high polyreactivity"),
    ("QVQLVESGGGLVQAGGSLRLSCAASGLIFYDNAMGWYRQAPGKERELVAAISWGGGTTYYADSVKGRFTISRDNAKNTVYLQMISLKPDDTAVYYCAAEEALFYDFYYVLLDYWGQGTQVTVSS", "high polyreactivity"),
    ("QVQLVESGGGLVQAGGSLRLSCAASGRIFSWYAMGWYRQAPGKERELVAAITVRGSTYYADSVKGRFTISRDNAKNTVYLQMNSLKPEDTAVYYCAAGGYPGTTYYGYDYWGQGTQVTVSS", "low polyreactivity"),
    ("QVQLVESGGGLVQAGGSLRLSCAASGSTSDSYAMGWYRQAPGKERELVAAISRGTNTYYADSVKGRFTISRDNAKNTVYLQLNRLKPEDTAVYYCNKVQYLRKYWVTPTGQRFGYWGQGTQVTVSS", "high polyreactivity"),
]

----------
assay: yeast display, Sf9 membrane polyspecificity reagent, FACS + sequencing; frameworks hold sequencing errors
MEASURED_PROPERTY: polyreactivity (PSR sort gate)

# POLYMER_SEQUENCE, MEASURED_PROPERTY, RECORDED_VALUE
records = [
    ("QVQLVESGGGLVQAGGSLRLCCAASGRIFAGNAMGWYRQAPGKEREFVAGISKGGGRTYYADSVKGRCTISRDNAKKTVYLQMNSLKPEDTAVYYCAALPPRASSDAGGWYVAEDYWGQGTQVTVSS", "polyreactivity (PSR sort gate)", "high polyreactivity"),
    ("QVQLQESGSGLVQAGGSLRLSCAASGAIFPANLMGWYRQAPGKERELVAGISYGSITYCADSVKGRFNISRDNAKNTVYLQMNSLKPEDTAVYYCAVWRPGGDEYYYWGQGTQVTVSS", "polyreactivity (PSR sort gate)", "low polyreactivity"),
    ("QVQLVESGGGLVQAGGSLRLSCAASGSTFPLYAMGWYRQAPGKERELVAAITGGGGRTYYADSVKGRFTISRDNAKNTVYLQMNSLKPEDTAVYYCATDSFGYDWYWGQGTQVTVSS", "polyreactivity (PSR sort gate)", "low polyreactivity"),
    ("QVQLVESGGGLVQAGGSLRLSCAASGRIFKYYTMGWYRQATGKEREFVASITGSGGTTYYADSVKGRFTISRDNAKNTVYLQMNSLKPEDTAVYYCNAYSYPYWYRYYYWGQGTQVTVSS", "polyreactivity (PSR sort gate)", "high polyreactivity"),
    ("QVQLVESGGGLVQAGGSLRLSCAASGRIFARYTMGWYRQAPGKEREFVAGIRSSGGRTYYADSVKGRFTISRDNAKNTVYLQMNSLKPEDTAVYYCKAGGSWYFARYDYWGQGTLVTVSS", "polyreactivity (PSR sort gate)", "low polyreactivity"),
    ("QVQLVESGGGLVQAGGILRLSCAASGSTFGYYTMGWYRQAPGKEREFVAAITRRGGSTYYADSVKGRFTISRDNAKNTVYLQMNSLKPEDTAVYYCAAESRYQPHYGYWGQGTQVTVSS", "polyreactivity (PSR sort gate)", "high polyreactivity"),
    ("QVQLVESGGGLVQAGGSLRLSCAASGFIFLVNAMGWYRRGPGTERELVAAISKSTGGTYYADSVKGRFTISRDNAKNTVYLQMNSLKPEDTAVYYCAADEVYPVQRDMDYWGQGTQVTVSS", "polyreactivity (PSR sort gate)", "low polyreactivity"),
    ("QVQLVESGGGLVQAGGSLRLSCAASGRIFTRYTMGWYRQAPGKERQLVASITSSGSSSYYADSVKGRFTISRDYAKNTVYLQMNSLKPEDTAVYYCAARSRLRYLYDYWGHGTQVTVSS", "polyreactivity (PSR sort gate)", "high polyreactivity"),
    ("QVQLVESGGGLVQAGGSLRLSCAASGRTFYYYTMGWYRQAPGKERELVAAITWNGGSTYYADSVKGRFTISRDNAKNTVYLQMNSLKPEDTGVYYCIARWTWRYDYWGQGTQVTLSS", "polyreactivity (PSR sort gate)", "high polyreactivity"),
]
